I'd appreciate it if you could supply SH2 binding enrichment values for the items below.
Molecular target: Grb2 SH2 (UniProt P62993)
Sequence (P62993 whole entry, looked up): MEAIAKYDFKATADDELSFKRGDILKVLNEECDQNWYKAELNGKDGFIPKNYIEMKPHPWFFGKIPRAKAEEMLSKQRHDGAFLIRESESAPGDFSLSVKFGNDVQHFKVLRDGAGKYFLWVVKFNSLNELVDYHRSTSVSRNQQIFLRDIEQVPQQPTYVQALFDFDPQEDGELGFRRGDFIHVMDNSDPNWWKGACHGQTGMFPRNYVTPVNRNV
Test: SH2 binding enrichment of the phosphorylated peptide, bacterial display (enrichment ratio); higher = better substrate or ligand; peptides without Tyr show the background
Give bare numbers.

INSERT INTO measurements (sequence_data, observed_value) VALUES
  ('TKLKDYYIFNK [CCDC42_Y149_A144T]', 1.05);

Could you report SH2 binding enrichment for every entry in the following list?
1. GRIHSYRGHLW [VHL_Y112_R107G]
2. YGSGNYNVFGN [HNRNPA2B1_Y300_D302V]
3. DLSEVYKPRRK [CCDC93_Y176]
4. FEREQYADRAR [RBM4_Y355_YF]
5. CEHRGSLFLAI [TEK_Y897_Y897S_YF]

**Result**
1: 1.85; 2: 0.813; 3: 0.414; 4: 0.956; 5: 0.989

For each of the items listed, what is its SH2 binding enrichment?
1. RLSELYLRRNP [CFAP410_Y68_R73P]
2. QTEAQYRFIYM [PTPN11_Y511]
3. VIKDKYPKARY [APTX_Y209]
4. TTKGSYSLYVR [HCK_Y180_S183Y]

**Result**
1: 0.633; 2: 0.563; 3: 1.31; 4: 0.998

* * *

Biological target: Grb2 SH2 (UniProt P62993)
Assay: SH2 binding enrichment of the phosphorylated peptide, bacterial display (enrichment ratio); higher = better substrate or ligand; peptides without Tyr show the background
reported.endpoint: SH2 binding enrichment

INSERT INTO assay_data (sequence_data, reported_endpoint, observed_value) VALUES
  ('LSSLAYSGKDA [FXN_Y205]', 'SH2 binding enrichment', 0.683);

Go through the list and state SH2 binding enrichment for each entry.
1. VHNLDYFKMTT [FGFR3_Y647_K650M_YF]
2. DPFHVYIKNHV [KCNE3_Y95_R99H_YF]
3. ILDEAYVMAIV [EGFR_Y764_S768I]
4. LDLPGYCPLRE [CCDC116_Y291]
5. TVLWLYTGTRP [UGT1A1_Y337_R336L]
6. MSRDIYSTDFF [NTRK1_Y676_YF]
7. QDLTDYLMKIL [ACTA2_Y190_R185Q]

**Result**
0.995
0.978
0.791
0.754
1.28
1.01
1.33

Look at each sequence and report its SH2 binding enrichment.
1. VPANRYDLLRL [FARSB_Y72_C76R]
2. ENRKFYKDLKE [PURA_Y156_M157K_YF]
3. FLENFYDLKKD [MMP3_Y42_YF]
4. TFEFKYPEGSS [TGM4_Y440_YF]
5. AGQEDYDRLRP [CDC42_Y64]
6. LSVEIYDRREF [ITGB7_Y753_YF]

**Result**
1: 0.765; 2: 0.847; 3: 0.821; 4: 0.804; 5: 0.825; 6: 0.985

* * *

Target: MERTK (UniProt Q12866)
Sequence (Q12866 whole entry, looked up): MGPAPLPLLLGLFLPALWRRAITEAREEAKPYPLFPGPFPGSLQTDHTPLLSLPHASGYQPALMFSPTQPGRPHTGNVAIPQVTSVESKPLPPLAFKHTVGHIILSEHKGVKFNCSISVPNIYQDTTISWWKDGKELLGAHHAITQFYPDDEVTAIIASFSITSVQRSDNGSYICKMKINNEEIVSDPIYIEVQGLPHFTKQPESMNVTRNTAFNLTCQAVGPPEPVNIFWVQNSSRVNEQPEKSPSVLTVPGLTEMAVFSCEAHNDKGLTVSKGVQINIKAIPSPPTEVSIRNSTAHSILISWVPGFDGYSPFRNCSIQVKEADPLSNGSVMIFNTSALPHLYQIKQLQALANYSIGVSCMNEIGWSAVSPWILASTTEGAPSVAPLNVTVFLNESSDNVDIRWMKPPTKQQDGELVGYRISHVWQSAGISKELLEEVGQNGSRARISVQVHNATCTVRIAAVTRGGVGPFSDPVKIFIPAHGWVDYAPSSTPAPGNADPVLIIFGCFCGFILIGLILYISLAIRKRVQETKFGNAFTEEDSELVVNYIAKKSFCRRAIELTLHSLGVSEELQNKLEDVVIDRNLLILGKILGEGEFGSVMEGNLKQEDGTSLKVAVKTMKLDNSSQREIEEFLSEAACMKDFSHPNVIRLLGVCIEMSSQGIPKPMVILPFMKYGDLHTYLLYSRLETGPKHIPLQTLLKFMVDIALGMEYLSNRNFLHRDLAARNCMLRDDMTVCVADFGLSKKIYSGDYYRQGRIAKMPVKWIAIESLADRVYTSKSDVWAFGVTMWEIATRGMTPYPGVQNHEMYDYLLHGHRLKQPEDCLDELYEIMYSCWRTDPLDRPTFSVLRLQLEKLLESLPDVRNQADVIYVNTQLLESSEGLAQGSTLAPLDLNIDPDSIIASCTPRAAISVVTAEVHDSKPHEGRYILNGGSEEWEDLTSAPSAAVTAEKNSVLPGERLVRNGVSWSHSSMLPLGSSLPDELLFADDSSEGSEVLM
Assay: phosphorylation enrichment, bacterial display (enrichment ratio); higher = better substrate or ligand; peptides without Tyr show the background
reported.endpoint: phosphorylation enrichment

INSERT INTO assay_data (sequence_data, observed_value) VALUES
  ('EQKKFYNAVKK [SCN5A_Y1495_M1498V_YF]', 0.482),
  ('HEGKIYEFNQV [ZNF665_Y162_YF]', 4.13),
  ('KGSEGYLAAIF [NF1_Y2503_T2507I_YF]', 0.422);

// input: 2 sequences below; output: phosphorylation enrichment for each
1. QNTVDYYDLYG [PTPN11_Y62_G60V]
2. TCFDKYTGNTF [FN1_Y101_YF]

**Result**
1: 1.33; 2: 0.501

Hey, just so you know, these numbers are from the supplement of paper PMC10065799.
